# Test system: NCI-H650
# METHOD_DESCRIPTION: relative viability (nuclei count vs DMSO), 5 days (fraction); higher = more cells survive
# MEASUREMENT_CONDITIONS: first compound 2 µM
Binarize relative viability at 0.5; below is true, at or above is false.

* Cc1csc(=NC2CCCCC2)n1/N=C/c1ccc(O)c(O)c1O [MIM1] + N=C(N)NC(=N)NCCc1ccccc1 [Phenformin] (partner 250 µM) | true
* Cc1csc(=NC2CCCCC2)n1/N=C/c1ccc(O)c(O)c1O [MIM1] + CC(=O)c1c(C)c2cnc(Nc3ccc(N4CCNCC4)cn3)nc2n(C2CCCC2)c1=O [Palbociclib] (partner 0.5 µM) | true
* Cc1csc(=NC2CCCCC2)n1/N=C/c1ccc(O)c(O)c1O [MIM1] + COc1cc2c(Oc3ccc(NC(=O)C4(C(=O)Nc5ccc(F)cc5)CC4)cc3F)ccnc2cc1OCCCN1CCOCC1 [Foretinib] (partner 0.25 µM) | false
* Cc1csc(=NC2CCCCC2)n1/N=C/c1ccc(O)c(O)c1O [MIM1] + COc1cccc2cc(-c3nc([C@H]4CC[C@H](C(=O)O)CC4)n4ncnc(N)c34)[nH]c12 [OSI-027] (partner 0.5 µM) | true

# ---- query molecule ----
Task item: Consider CN1CCN(CCOc2cc(OC3CCOCC3)c3c(Nc4c(Cl)ccc5c4OCO5)ncnc3c2)CC1 [Saracatinib] + NC(=O)Nc1cc(-c2cccc(F)c2)sc1C(=O)N[C@H]1CCCNC1 [AZD7762] (partner 0.2 µM) . Does its relative viability lie strictly below 0.5?
Reply: false
